TARGET OF ASSAY: CYP3A4 (Homo sapiens, UniProt P08684)
Sequence (P08684 whole entry): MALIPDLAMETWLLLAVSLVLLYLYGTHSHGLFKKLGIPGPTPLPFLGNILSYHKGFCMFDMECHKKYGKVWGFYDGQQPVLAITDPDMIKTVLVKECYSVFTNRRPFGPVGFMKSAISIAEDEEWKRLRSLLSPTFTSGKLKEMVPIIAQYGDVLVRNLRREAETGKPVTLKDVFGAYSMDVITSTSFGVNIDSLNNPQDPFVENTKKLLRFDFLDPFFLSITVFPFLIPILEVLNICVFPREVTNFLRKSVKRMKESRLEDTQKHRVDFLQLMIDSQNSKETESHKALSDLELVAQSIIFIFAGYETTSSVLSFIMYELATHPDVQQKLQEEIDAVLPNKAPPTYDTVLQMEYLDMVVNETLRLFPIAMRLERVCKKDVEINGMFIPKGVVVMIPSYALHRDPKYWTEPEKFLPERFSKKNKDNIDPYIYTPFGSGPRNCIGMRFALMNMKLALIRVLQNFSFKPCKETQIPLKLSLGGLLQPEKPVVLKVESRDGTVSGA

MOLECULE	TARGET OF ASSAY	Kd
C[C@]12CC[C@H]3[C@@H](CCC4=CC(=O)CC[C@@]43C)[C@@H]1CC[C@@H]2O [testosterone]	CYP3A4 (Homo sapiens, UniProt P08684)	30.5 µM

Measured values drawn from paper PMC5048684 for this set.
